# protocolNotes: A549 NSCLC cell proliferation inhibitors – ATP luminescence, human non-small cell lung line, primary screen (AID 371);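 also: compound exposure lasted 72 h before the ATP read; 0% = untreated cell signal and 100% = no luminescence left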
# assayConditions: at 10 µM, stronger effect = higher value
The whole screen tested about 3,300 compounds, of which about 280 (8.5%) were called active. Many of the other results were omitted from the sample, so actives are more common in it than they were.
measure: growth inhibition (%)

{"columns": ["compound", "measure", "reading"],
 "data": [
  ["CCOC(=O)c1ccc(CC2S/C(=C(\\C#N)C(C)=O)NC2=O)cc1 (centres undefined)", "growth inhibition", 26.4],
  ["Cn1c(Cl)cnc1C1CC(=O)c2cc(Cl)ccc2O1 (centres undefined)", "growth inhibition", 62.9],
  ["CCOC(=O)CSC1=C(C#N)C(c2ccc(OC)cc2)C2=C(CC(C)(C)CC2=O)N1 (centres undefined)", "growth inhibition", 9.46],
  ["COCCCn1c2nc3ccccc3nc2c2c(=O)n(CC3CCCO3)cnc21 (centres undefined)", "growth inhibition", 3.37],
  ["CCOC(=O)/C(C#N)=C1/SC(CCO)C(=O)N1c1ccccc1 (centres undefined)", "growth inhibition", -8.59],
  ["N#C/C(C(=O)N1CCOCC1)=C1/SC(Cc2ccccc2)C(=O)N1c1ccccc1 (centres undefined)", "growth inhibition", 0],
  ["Cn1nccc1C(=O)Nc1ccccc1C(=O)O", "growth inhibition", 2.72],
  ["CN1CCN(C2=Nc3ccccc3Oc3ccc(Cl)cc32)CC1", "growth inhibition", 18.5],
  ["N#CC1=C(SCC(=O)c2ccccc2)NC2=C(C(=O)CCC2)C1c1ccco1 (centres undefined)", "growth inhibition", 69]
]}

====

# protocolNotes: A549 NSCLC cell proliferation inhibitors – ATP luminescence, human non-small cell lung line, primary screen (AID 371);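 also: compound exposure lasted 72 h before the ATP read; 0% = untreated cell signal and 100% = no luminescence left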
# assayConditions: at 10 µM, stronger effect = higher value
Out of some 3,300 compounds screened, about 280 (8.5%) were called active. For the sample, actives were picked, then their nearest neighbours and some compounds at random.
Quick reference for growth inhibition among some compounds

{"columns": ["compound", "growth inhibition (%)"],
 "data": [
  ["Cc1[nH]nc(-c2ccc(O)cc2O)c1Oc1ccccc1", 56.1],
  ["Cc1nc(-c2c(-c3ccc(O)cc3O)noc2C(F)(F)F)cs1", 41.5],
  ["C=CCOC(=O)C1=C(C)NC(SCC(=O)Nc2ccc(C)c(Cl)c2)=C(C#N)C1c1ccco1 (centres undefined)", 84.2],
  ["CCc1ccc(NC(=O)CSC2=C(C#N)C(c3ccco3)C3=C(CCCC3=O)N2)cc1 (centres undefined)", 44.8],
  ["COc1cc(C)nc(Oc2ccc(OCCOc3ccc(C)cc3)nn2)n1", 6.13],
  ["CCc1ccccc1NC(=O)CSC1=C(C#N)C(c2ccc(O)c(OC)c2)C2=C(CCCC2=O)N1 (centres undefined)", 35],
  ["N#Cc1c(N2CCOCC2)nc(-c2ccco2)c2c1CCCC2", 7.04],
  ["CCCCc1ccc(NC(=O)CSC2=C(C#N)C(c3ccco3)C3=C(CCCC3=O)N2)cc1 (centres undefined)", 57.6],
  ["COC(=O)CSc1nc(C)c(Oc2ccccc2)c(=O)[nH]1", -3.23],
  ["O=c1cc(N2CCCCC2)nc2n1CCCS2", 8.96],
  ["CCCCOC(=O)CSC1=C(C#N)C(c2ccc3c(c2)OCO3)CC(=O)N1 (centres undefined)", 40.3],
  ["CC(C)(C)n1cnc2cc(NS(=O)(=O)c3ccc(Br)cc3)ccc21", 61.4],
  ["CCN(CC)C(=O)CSC1=C(C#N)C(c2ccco2)C(C(=O)OCCOC)=C(C)N1 (centres undefined)", 1.8],
  ["CCSc1nc(N)c2c3c(sc2n1)CCC3", 6.53]
]}

Each recorded value in this set is attributed to PubChem BioAssay AID371.
